# System: Rattus norvegicus
# assay: Antiestrogenic activity in Sprague-Dawley rat assessed as reduction in estradiol induced uterine weight 0.06 ug, po after 8 days relative to letrozole
# Assay type: functional
Items are presented alongside their recorded potency ratio vs letrozole.

These recorded examples may help you get a feel for the data.
compound-string | potency ratio vs letrozole
CCOC(=O)c1nn(-c2ccc(Cl)cc2)cc1C(=O)c1nn(-c2ccccc2)c(-c2ccccc2)c1C#N | 1.61
N#Cc1c(-c2nnc(-c3nn(-c4ccccc4)c(-c4ccccc4)c3C#N)c3nn(-c4ccccc4)cc23)nn(-c2ccccc2)c1-c1ccccc1 | 1.61
CCOC(=O)c1nn(-c2ccccc2)cc1C(=O)c1nn(-c2ccccc2)c(-c2ccccc2)c1C#N | 1.1
N#Cc1ccc(C(c2ccc(C#N)cc2)n2cncn2)cc1 | 1
N#Cc1c(-c2nnc(-c3nn(-c4ccccc4)c(-c4ccccc4)c3C#N)c3nn(-c4ccc(Cl)cc4)cc23)nn(-c2ccccc2)c1-c1ccccc1 | 2
N#Cc1c(C(=O)c2cn(-c3ccccc3)nc2-c2ccccc2)nn(-c2ccccc2)c1-c1ccccc1 | 1.08
Cc1ccc(-n2cc(C(=O)c3nn(-c4ccccc4)c(-c4ccccc4)c3C#N)c(C(=O)Nc3ccccc3)n2)cc1 | 1.6

Here is the next item to consider.
Identify potency ratio vs letrozole associated with the molecule N#Cc1c(-c2nnc(O)c3nn(-c4ccccc4)cc23)nn(-c2ccccc2)c1-c1ccccc1
1.51

---

# assay: Acute toxicity in mouse after 24 hrs
# Format: organism-based
# condition-notes: in vivo
Listed here are molecules together with their documented LD50 at 24 h.
# number only, unit mg/kg dropped from output

compound-string | endpoint-value
Cc1ccc(-n2cc(C(=O)c3nn(-c4ccccc4)c(-c4ccccc4)c3C#N)c(C(=O)c3nn(-c4ccccc4)c(-c4ccccc4)c3C#N)n2)cc1 | 211

Return LD50 at 24 h for the following molecule: Cc1ccc(-n2cc(C(=O)c3nn(-c4ccccc4)c(-c4ccccc4)c3C#N)c(C(=O)Nc3ccccc3)n2)cc1
122

For the molecule N#Cc1c(-c2nnc(O)c3nn(-c4ccc(Cl)cc4)cc23)nn(-c2ccccc2)c1-c1ccccc1 , report LD50 at 24 h.
322

Look up LD50 at 24 h of CCOC(=O)c1nn(-c2ccc(Cl)cc2)cc1C(=O)c1nn(-c2ccccc2)c(-c2ccccc2)c1C#N and report it.
143

Specify LD50 at 24 h for N#Cc1c(-c2nnc(O)c3nn(-c4ccccc4)cc23)nn(-c2ccccc2)c1-c1ccccc1 and stop.
114

Supply LD50 at 24 h value. Item: N#Cc1c(-c2nnc(-c3nn(-c4ccccc4)c(-c4ccccc4)c3C#N)c3nn(-c4ccc(Cl)cc4)cc23)nn(-c2ccccc2)c1-c1ccccc1
112

Determine its reported LD50 at 24 h: CC(=O)c1nn(-c2ccccc2)cc1C(=O)c1nn(-c2ccccc2)c(-c2ccccc2)c1C#N
324

Respond only with LD50 at 24 h recorded for N#Cc1c(C(=O)c2cn(-c3ccccc3)nc2-c2ccccc2)nn(-c2ccccc2)c1-c1ccccc1
122

---

# assay: Acute toxicity in mouse after 24 hrs
# Format: organism-based
# condition-notes: in vivo
Please note: LD50 at 24 h exactly at 200 mg/kg is no (0). Only values below 200 mg/kg get yes (1).

compound-string | group-label
Cc1nnc(-c2nn(-c3ccccc3)c(-c3ccccc3)c2C#N)c2cn(-c3ccccc3)nc12 | yes (1)

Please determine if N#Cc1c(-c2nnc(-c3nn(-c4ccccc4)c(-c4ccccc4)c3C#N)c3nn(-c4ccccc4)cc23)nn(-c2ccccc2)c1-c1ccccc1 is below 200 mg/kg in terms of LD50 at 24 h.
no (0)

Say whether its LD50 at 24 h is strictly beneath 200 mg/kg. Entry: CN(C)/C=C/C(=O)c1nn(-c2ccccc2)c(-c2ccccc2)c1C#N
no (0)

Just wondering, is LD50 at 24 h of N#Cc1c(C(=O)/C=C/N2CCOCC2)nn(-c2ccccc2)c1-c1ccccc1 below 200 mg/kg?
no (0)

Please determine if N#Cc1c(C(=O)c2cn(-c3ccc(Cl)cc3)nc2C(=O)Nc2ccccc2)nn(-c2ccccc2)c1-c1ccccc1 is below 200 mg/kg in terms of LD50 at 24 h.
yes (1)

Determine whether this molecule shows LD50 at 24 h lower than 200 mg/kg (ties excluded): CCOC(=O)c1nn(-c2ccccc2)cc1C(=O)c1nn(-c2ccccc2)c(-c2ccccc2)c1C#N
yes (1)

LD50 at 24 h strictly < 200 mg/kg for this molecule? N#Cc1ccc(C(c2ccc(C#N)cc2)n2cncn2)cc1
no (0)

Decide: LD50 at 24 h of CCOC(=O)c1nn(-c2ccc(C)cc2)cc1C(=O)c1nn(-c2ccccc2)c(-c2ccccc2)c1C#N strictly below 200 mg/kg?
no (0)

---

# Test system: OVCAR-4
# assay: Growth inhibition of human OVCAR4 cells after 48 hrs by sulforhodamine B assay
# Format: functional
# condition-notes: OVCAR-4, 48 h
Simple rule here: GI50 less than 30 µM is condition met, otherwise condition not met.

compound-string | group-label
N#Cc1c(-c2nnc(-c3ccccc3)c3nn(-c4ccc(Cl)cc4)cc23)nn(-c2ccccc2)c1-c1ccccc1 | condition met
CCOC(=O)c1nn(-c2ccc(Cl)cc2)cc1C(=O)c1nn(-c2ccccc2)c(-c2ccccc2)c1C#N | condition not met
Cc1ccc(-n2cc(C(=O)c3nn(-c4ccccc4)c(-c4ccccc4)c3C#N)c(C(=O)Nc3ccccc3)n2)cc1 | condition met

Answer whether the molecule N#Cc1c(C(=O)/C=C/N2CCOCC2)nn(-c2ccccc2)c1-c1ccccc1 has GI50 strictly less than 30 µM
condition not met

Please state whether GI50 is below 30 µM for N#Cc1ccc(C(c2ccc(C#N)cc2)n2cncn2)cc1
condition met

Find out if reported GI50 for N#Cc1c(C(=O)c2cn(-c3ccc(Cl)cc3)nc2C(=O)Nc2ccccc2)nn(-c2ccccc2)c1-c1ccccc1 is less than 30 µM
condition met

---

# Test system: Rattus norvegicus
# assay: Antiestrogenic activity in Sprague-Dawley rat assessed as reduction in estradiol induced uterine weight upto 0.06 ug, po after 8 days
# Format: functional
# Parameters: scale not given: the % may be the effect or the level left
Recorded Activity values for a group of molecules are listed next.
Express your answer in %, writing the number without its unit.

Record excerpt, results attached:
compound-string | unit-info | endpoint-value
N#Cc1ccc(C(c2ccc(C#N)cc2)n2cncn2)cc1 | % | 21.65
CCOC(=O)c1nn(-c2ccccc2)cc1C(=O)c1nn(-c2ccccc2)c(-c2ccccc2)c1C#N | % | 23.98
N#Cc1c(-c2nnc(-c3nn(-c4ccccc4)c(-c4ccccc4)c3C#N)c3nn(-c4ccccc4)cc23)nn(-c2ccccc2)c1-c1ccccc1 | % | 34.87
CCOC(=O)c1nn(-c2ccc(C)cc2)cc1C(=O)c1nn(-c2ccccc2)c(-c2ccccc2)c1C#N | % | 42.83
N#Cc1c(-c2nnc(O)c3nn(-c4ccccc4)cc23)nn(-c2ccccc2)c1-c1ccccc1 | % | 32.86
N#Cc1c(-c2nnc(O)c3nn(-c4ccc(Cl)cc4)cc23)nn(-c2ccccc2)c1-c1ccccc1 | % | 23.76
CCOC(=O)c1nn(-c2ccc(Cl)cc2)cc1C(=O)c1nn(-c2ccccc2)c(-c2ccccc2)c1C#N | % | 34.86
Cc1nnc(-c2nn(-c3ccccc3)c(-c3ccccc3)c2C#N)c2cn(-c3ccccc3)nc12 | % | 23.97

Consider the additional molecule presented here.
Find the measured Activity of N#Cc1c(C(=O)c2cn(-c3ccccc3)nc2-c2ccccc2)nn(-c2ccccc2)c1-c1ccccc1 and report it.
23.54

---

# Test system: OVCAR-4
# assay: Growth inhibition of human OVCAR4 cells after 48 hrs by sulforhodamine B assay
# Format: functional
# condition-notes: OVCAR-4, 48 h
The entries below come with measured GI50 values attached.

# annotated cases, reported GI50 shown
compound-string | GI50
Cc1nnc(-c2nn(-c3ccccc3)c(-c3ccccc3)c2C#N)c2cn(-c3ccccc3)nc12 | 56.4 µM
CCOC(=O)c1nn(-c2ccc(C)cc2)cc1C(=O)c1nn(-c2ccccc2)c(-c2ccccc2)c1C#N | 5.46 µM
N#Cc1c(-c2nnc(O)c3nn(-c4ccc(Cl)cc4)cc23)nn(-c2ccccc2)c1-c1ccccc1 | 4.38 µM
N#Cc1c(C(=O)c2cn(-c3ccccc3)nc2-c2ccccc2)nn(-c2ccccc2)c1-c1ccccc1 | 5.49 µM
CCOC(=O)c1nn(-c2ccccc2)cc1C(=O)c1nn(-c2ccccc2)c(-c2ccccc2)c1C#N | > 100 µM
N#Cc1c(-c2nnc(O)c3nn(-c4ccccc4)cc23)nn(-c2ccccc2)c1-c1ccccc1 | 26.4 µM
CC(=O)c1nn(-c2ccccc2)cc1C(=O)c1nn(-c2ccccc2)c(-c2ccccc2)c1C#N | 69.8 µM

Provide GI50 value for the following compound: Cc1ccc(-n2cc(C(=O)c3nn(-c4ccccc4)c(-c4ccccc4)c3C#N)c(C(=O)c3nn(-c4ccccc4)c(-c4ccccc4)c3C#N)n2)cc1
30.4 µM
